assay_target: HLA-A*31:01
experiment_notes: IEDB peptide-MHC binding, purified MHC/direct/fluorescence; filed as Kd, often an IC50 or EC50 that approximates it; bounds were set here for any values at or beyond the usual limits of such assays
setup_conditions: source organism: Pasteurella multocida
endpoint_name: Kd (µM)
Answer with a number only, understood to be in µM.

Given the sequence `LLKDLMPFV` , what is its reported Kd?
1.46

----------
assay_target: HLA-B*07:02
experiment_notes: IEDB peptide-MHC binding, purified MHC/direct/fluorescence; filed as Kd, often an IC50 or EC50 that approximates it; bounds were set here for any values at or beyond the usual limits of such assays
setup_conditions: source organism: Influenza A virus (A/Hong Kong/507/97(H5N1))
endpoint_name: Kd

Given the sequence `KSCLPACVY` , what is its reported Kd?
≥ 20 µM

----------
assay_target: HLA-B*44:03
experiment_notes: IEDB peptide-MHC binding, purified MHC/competitive/radioactivity; filed as Kd, often an IC50 or EC50 that approximates it; bounds were set here for any values at or beyond the usual limits of such assays
setup_conditions: source organism: Variola virus
pKd: −log10 of the molar value.
endpoint_name: pKd

Given the sequence `DKLVDPINY` , what is its reported pKd?
≤ 4.11

----------
assay_target: HLA-A*02:01
experiment_notes: IEDB peptide-MHC binding, purified MHC/direct/fluorescence; filed as Kd, often an IC50 or EC50 that approximates it; bounds were set here for any values at or beyond the usual limits of such assays
setup_conditions: source organism: Pseudomonas aeruginosa
endpoint_name: pKd
// pKd here means minus log10 of the molar concentration (mol/L)

Given the sequence `FSDARLAKL` , what is its reported pKd?
4.74

----------
assay_target: HLA-A*02:01
experiment_notes: IEDB peptide-MHC binding, purified MHC/competitive/fluorescence; filed as Kd, often an IC50 or EC50 that approximates it; bounds were set here for any values at or beyond the usual limits of such assays
setup_conditions: source organism: Vibrio antiquarius
endpoint_name: Kd (µM)
Answer with a number only, understood to be in µM.

Given the sequence `LVAPHMAMM` , what is its reported Kd?
3.41

----------
assay_target: HLA-B*40:01
experiment_notes: IEDB peptide-MHC binding, purified MHC/direct/fluorescence; filed as Kd, often an IC50 or EC50 that approximates it; bounds were set here for any values at or beyond the usual limits of such assays
setup_conditions: source organism: Influenza A virus (A/SW/KS/13481-T/00(H1N2))
endpoint_name: Kd

Short answer please: Kd, HLA-B*40:01, entry `HEKGINPNY`
≥ 20 µM

----------
Task for the reader: assign each of the following sequences its reported IC50.
assay_target: HLA-A*24:02
experiment_notes: IEDB peptide-MHC binding, purified MHC/competitive/fluorescence; bounds were set here for any values at or beyond the usual limits of such assays
setup_conditions: source organism: Zaire ebolavirus
Answer with a number only, understood to be in µM.

Given the sequence `KQLQQYAES` , what is its reported IC50?
20.8

Given the sequence `VYKLDISEA` , what is its reported IC50?
44

Given the sequence `KYLEGHGFR` , what is its reported IC50?
7.69

Given the sequence `AFHKEGAFF` , what is its reported IC50?
0.0199

Given the sequence `DMDYHKILT` , what is its reported IC50?
4.04

Given the sequence `QGIVRQRVI` , what is its reported IC50?
11.4

Given the sequence `LFEVDNLTY` , what is its reported IC50?
66.5
